System: Jurkat cells
Assay: Jurkat cell toxicity (CellTiter 96 Aqueous One Solution)
Assay type: cell-based
Settings: four hr or 24 hr incubation
Procedure: For 21 compounds, toxicity of Jurkat cells was assessed following a four hr or 24 hr incubation. […] A two-fold serial dilution series of each compound was tested in a concentration range of 40 μM to 0.15 μM.
Reported TOXICITY LD50 values follow for various compounds

Known results for compounds:
INSERT INTO measurements (compound, measured) VALUES
  ('O=C(/C=C/c1ccc(Sc2ccc(Cl)cc2Cl)c([N+](=O)[O-])c1)N1CCNCC1', '>40 µM'),
  ('CC(=O)N1CCN(C(=O)C2CC2c2ccc(Sc3ccccc3C(C)C)c(Cl)c2Cl)CC1 (stereo not drawn)', '>40 µM');

Pending compound:
Item O=C(/C=C/c1ccc(Sc2cccc(N3CCC(N4CCCC4)CC3)c2)c(Cl)c1Cl)NCCCN1CCCC1=O has what recorded TOXICITY LD50?
>40 µM
